B1: TRIM55 (parent)
chain: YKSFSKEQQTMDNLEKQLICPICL

variants of: B1; assay: protein stability index of a GFP-peptide fusion (GPS, HEK-293T) (PSI 1-6); higher = more stable; settings: c terminus: a fixed tail appended;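 note: lentivirally expressed fusions sorted by FACS into six bins by GFP to DsRed ratio, PSI derived from sequencing read proportions per bin multiplied by bin number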
endpoint: protein stability index
Answers are plain numbers.

// solved cases for protein stability index follow
Q8T 2.17
I19Q 2.81
E7T 1.96
E7Q 1.67
E15W 1.45

For the 4 variants below, give their protein stability index values.
1. S3D
2. I22D
3. Q17A
4. Q9W

Reply text:
2.47
2.78
1.79
1.67

For the 7 variants below, give their protein stability index values.
1. T10A
2. L24A
3. K2V
4. C20Q
5. I19P
6. Q17V
7. Q17D

Reply text:
1.74
1.92
2.05
2.05
2.29
2.01
2.76

For the 5 variants below, give their protein stability index values.
1. S5D
2. C20K
3. I19S
4. K16T
5. E7S

Reply text:
[2.18, 1.88, 2.37, 2.23, 1.67]

Inquiry: Need protein stability index of L14C , thanks.
Reply text: 2.51

The values you see were collected from the supplement of paper PMC10567573.
